- System: ATP;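 note: ATP exposure 15 min at 22 °C before imaging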
- Experiment description: switch fluorescence ratio, 500 uM ATP over buffer (Cy3 cluster intensity, sum of 5 cycles each) (fold (ratio)); higher = stronger signal-on switching upon ATP binding; sequences stand for … in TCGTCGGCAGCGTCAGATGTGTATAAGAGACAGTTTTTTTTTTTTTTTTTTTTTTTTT…TC
- Measurement context: aptamer strand: ATP DNA aptamer (quencher-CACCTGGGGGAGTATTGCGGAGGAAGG + anchor), 100 nM annealed; ATP concentration: 500 uM
Outcome: 1 for switch fluorescence ratio of at least 1; -1 for anything lower.

{"Seq text": "TCTACGGGAT", "Category label": 1}
{"Seq text": "ATTTTTAGAA", "Category label": 1}
{"Seq text": "ATTCTAGTAT", "Category label": -1}

Q: Kindly determine if switch fluorescence ratio recorded for GCGCAGACTT is above or exactly 1.
Result: 1

Q: Kindly determine if switch fluorescence ratio recorded for ACGAAGATTT is above or exactly 1.
Result: 1

Q: Kindly determine if switch fluorescence ratio recorded for ACATGGGTGG is above or exactly 1.
Result: -1

Q: Kindly determine if switch fluorescence ratio recorded for TGGATATAGG is above or exactly 1.
Result: 1

Q: Kindly determine if switch fluorescence ratio recorded for GGCTGTACAC is above or exactly 1.
Result: 1

Q: Kindly determine if switch fluorescence ratio recorded for GGGAATCATT is above or exactly 1.
Result: -1

Q: Kindly determine if switch fluorescence ratio recorded for AGGTGTGTGC is above or exactly 1.
Result: -1

Q: Kindly determine if switch fluorescence ratio recorded for CTTAATCTC is above or exactly 1.
Result: -1

Q: Kindly determine if switch fluorescence ratio recorded for CGTACGGGCG is above or exactly 1.
Result: -1

Q: Kindly determine if switch fluorescence ratio recorded for TCCGAGATCT is above or exactly 1.
Result: 1

Q: Kindly determine if switch fluorescence ratio recorded for TCGGAATAGA is above or exactly 1.
Result: 1

Q: Kindly determine if switch fluorescence ratio recorded for CGTGCATATC is above or exactly 1.
Result: 1

Q: Kindly determine if switch fluorescence ratio recorded for AGAGGGATAC is above or exactly 1.
Result: 1

Q: Kindly determine if switch fluorescence ratio recorded for CGGCTTTGGA is above or exactly 1.
Result: 1

Q: Kindly determine if switch fluorescence ratio recorded for TCCACATATC is above or exactly 1.
Result: 1

Q: Kindly determine if switch fluorescence ratio recorded for TTTGTAGACG is above or exactly 1.
Result: 1

Q: Kindly determine if switch fluorescence ratio recorded for ACTGAGGGTA is above or exactly 1.
Result: 1

Q: Kindly determine if switch fluorescence ratio recorded for TGCAATTTTA is above or exactly 1.
Result: 1

Q: Kindly determine if switch fluorescence ratio recorded for TTTTTAGGTG is above or exactly 1.
Result: 1

Q: Kindly determine if switch fluorescence ratio recorded for CTTCTGGAGG is above or exactly 1.
Result: 1
